system: HeLa Kyoto; assay: solubility in G1/S (NP-40 vs SDS abundance) (log2 ratio); higher = more soluble; conditions: cell cycle stage: G1/S;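 note: HeLa Kyoto cells arrested at G1/S by double thymidine block, proteins quantified by TMT10plex mass spectrometry in mild NP-40 versus SDS extracts, three biological replicates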
Property measured: solubility in G1/S (log2)

Short answer for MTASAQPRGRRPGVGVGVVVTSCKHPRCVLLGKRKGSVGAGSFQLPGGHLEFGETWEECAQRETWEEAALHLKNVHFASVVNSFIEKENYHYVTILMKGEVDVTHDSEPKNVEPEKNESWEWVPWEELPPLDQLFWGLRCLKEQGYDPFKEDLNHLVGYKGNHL [NUDT15] : solubility in G1/S (log2) was 0.425

Would you kindly look at the next entry?
Short answer for MAGKKVLIVYAHQEPKSFNGSLKNVAVDELSRQGCTVTVSDLYAMNLEPRATDKDITGTLSNPEVFNYGVETHEAYKQRSLASDITDEQKKVREADLVIFQFPLYWFSVPAILKGWMDRVLCQGFAFDIPGFYDSGLLQGKLALLSVTTGGTAEMYTKTGVNGDSRYFLWPLQHGTLHFCGFKVLAPQISFAPEIASEEERKGMVAAWSQRLQTIWKEEPIPCTAHWHFGQ [NQO2] : solubility in G1/S (log2) was 0.396
